Collected pIC50 values appear next to each entry.
target_desc: human full length HSD11β1 (Homo sapiens)
Construct: transient expression of human full length HSD11β1 expression vector
Sequence (P28845 whole entry): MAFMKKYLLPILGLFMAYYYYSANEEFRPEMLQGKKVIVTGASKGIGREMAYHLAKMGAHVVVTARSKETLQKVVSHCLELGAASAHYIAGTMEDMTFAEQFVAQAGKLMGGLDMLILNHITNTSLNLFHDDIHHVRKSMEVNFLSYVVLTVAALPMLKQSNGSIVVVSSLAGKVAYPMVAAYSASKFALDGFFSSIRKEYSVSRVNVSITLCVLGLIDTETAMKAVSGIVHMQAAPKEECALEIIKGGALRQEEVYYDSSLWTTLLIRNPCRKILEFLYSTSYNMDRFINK
method_summary: In Vitro HSD11β1 Inhibition Assay
condition_context: CHO cells transiently expressing human HSD11β1; 200 nM cortisone+500 uM NADPH overnight; cortisone to cortisol by LC/MS-MS; read-out: 11βHSD1 (IC50)
pIC50: −log10 of the molar value.

# input Dear colleague, I am looking for the recorded pIC50 of the following compound: CC(C)C(CC(=O)N1C2CC3CC(C2)C(O)C1C3)c1c[nH]c2ccccc12 (stereo not drawn)
# output 6.60 to 6.70

***
# input Dear colleague, I am looking for the recorded pIC50 of the following compound: CC(CC(=O)N1C2CC3CC1CC(O)(C3)C2)c1c[nH]c2cccc(F)c12 (single isomer, unassigned) [Example 27]
# output < 6.60

# input Dear colleague, I am looking for the recorded pIC50 of the following compound: O=C(CC(c1ccccc1)c1c[nH]c2cc(F)ccc12)N1C2CC3CC1CC(C(=O)O)(C3)C2 (stereo not drawn)
# output 6.60 to 6.70
